Recorded measurements of Ki, one per entry
# assay system: Muscarinic acetylcholine receptor
# assay protocol: Receptor binding affinity (Ki) for Muscarinic acetylcholine receptor (parotid glands) was determined by competition radioligand -[3H]- QNB binding assay
# Format: protein assay, Cavia porcellus

- mol: "O=Cc1cccc2cc(C3=CN4CCC3CC4)oc12"
  Ki: "3023 nM"
- mol: "Brc1cccc2cc(C3=CN4CCC3CC4)oc12"
  Ki: "216 nM"
- mol: "Cc1cccc2cc(C3=CN4CCC3CC4)oc12"
  Ki: "76 nM"
- mol: "O=Cc1cc(I)cc2cc(C3=CN4CCC3CC4)oc12"
  Ki: "2300 nM"
- mol: "Cc1ccc2oc(C3=CN4CCC3CC4)cc2c1"
  Ki: "295 nM"
- mol: "Cc1c(C2=CN3CCC2CC3)oc2ccccc12"
  Ki: "204 nM"
- mol: "O=Cc1cc(I)c2oc(C3=CN4CCC3CC4)cc2c1"
  Ki: "1300 nM"
- mol: "Brc1ccc2oc(C3=CN4CCC3CC4)cc2c1"
  Ki: "109 nM"
- mol: "C1=C(c2cc3cccc(-c4ccccc4)c3o2)C2CCN1CC2"
  Ki: "410 nM"
- mol: "C1=C(c2cc3cc(-c4ccccc4)ccc3o2)C2CCN1CC2"
  Ki: "410 nM"
- mol: "Brc1c(C2=CN3CCC2CC3)oc2ccccc12"
  Ki: "161 nM"
- mol: "COc1cc(C=O)cc2cc(C3=CN4CCC3CC4)oc12"
  Ki: "7600 nM"
- mol: "N#Cc1ccc2oc(C3=CN4CCC3CC4)cc2c1"
  Ki: "236 nM"
- mol: "O=Cc1ccc2oc(C3=CN4CCC3CC4)cc2c1"
  Ki: "1571 nM"
- mol: "C1=C(c2oc3ccccc3c2-c2ccccc2)C2CCN1CC2"
  Ki: "56 nM"

All figures here come from ChEMBL document CHEMBL1129078.
